Every entry's value here was drawn from ChEMBL document CHEMBL3988442.

Listed here are molecules together with their documented Percent Effect.
System: Wolbachia pipientis
Test: Anti-Wolbachia Cell-Based Screen
Assay type: functional
Set-up: scale not given: in the data most compounds retested in dose-response had high values
Conditions: 5 µM
Among all 48,000 compounds or so, about 13,000 (27%) showed an effect of 50% or more. This is one part of the list.
Kindly provide the numeric value in % only, without the unit symbol.

Below, each entry is followed by its recorded Percent Effect result.
> print(dat)
                                   molecule  resultunit  resultvalue
1     O=C(Cc1ccc2c(c1)OCCO2)NCCc1nnc2n1CCC2           %      -0.3257
2   Cc1c(CN2CCc3nc4sccc4c(=O)n3CC2)cnn1C.Cl           %        100.5
3    Cc1nonc1C(=O)N1CCc2c(ncn2CCc2ccccc2)C1           %        7.043
4       O=C(CSc1ccccc1)N1CCC(N2CCCCC2=O)CC1           %       -3.003
5    CCSc1ncc(CN2CCN(c3ncc(C)c(N)n3)CC2)cn1           %      -0.8762
6  Cc1cc(C)n(CC2CCCN2C(=O)c2ccc3c(c2)OCO3)n1 (stereo unspecified)           %        14.69

// query # query: Percent Effect | item `CN(C)S(=O)(=O)N1CCC[C@]2(C[C@@H](Oc3ccccn3)CO2)C1.O=C(O)C(F)(F)F` | system: Wolbachia pipientis
// result -2.011

// query Request - read-out Percent Effect | tested on Wolbachia pipientis | molecule `O=C(CCc1ccc(Cl)s1)N1CCC(N2CCNC2=O)CC1`
// result 39.9

// query What value of Percent Effect on Wolbachia pipientis does Cc1cc(C)n(CC2CCCCN2C(=O)c2ccc3c(c2)OCO3)n1 (stereo unspecified) have?
// result -4.429

// query Query for Wolbachia pipientis: what Percent Effect does the record show for `Cc1cc(C(=O)N2CCC(N3CCNC3=O)CC2)nn1C(C)(C)C` ?
// result -1.395

// query Please provide the recorded Percent Effect for `CS(=O)(=O)c1ccc(O[C@H]2COCCN(C(=O)c3ccno3)C2)cc1` , tested on Wolbachia pipientis.
// result -17.98

// query Observed Percent Effect on Wolbachia pipientis for `COc1ccc(C2(c3nc(-c4cnn(C)c4)no3)CCOCC2)cc1` , please.
// result -8.889

// query Request body: readout Percent Effect, system Wolbachia pipientis, query `CC(C)c1ncc(-c2cc(C3CCC3)nc(N)c2C#N)cn1` . Return the value.
// result 96.4

// query Param readout = Percent Effect; param system = Wolbachia pipientis; param query = Cc1cc(C)n(C2CCCN(C(=O)c3c[nH]c(=O)c(Cl)c3)C2)n1 (stereo unspecified) ; response: value
// result -7.23

// query # get_value(readout= Percent Effect, system= Wolbachia pipientis) for `Cc1cnc(NC(=O)N2CCC(N3CCCCC3=O)CC2)s1`
// result 0.5285

// query What is its Percent Effect for Wolbachia pipientis? Entry: `O=C(Cc1ccc2c(c1)OCCO2)NC1CCCC1`
// result -1.576

// query Wolbachia pipientis / Percent Effect / `Cc1ccc([C@@H]2CN(C(=O)c3ccsc3)C[C@H]2NC(=O)C2CC2)cc1` : value?
// result -0.5207

// query Request - read-out Percent Effect | tested on Wolbachia pipientis | molecule `Cc1cc(CN2CCN(C(=O)C(C)C)[C@@H]3CS(=O)(=O)C[C@@H]32)ccc1F`
// result -3.716

// query Lookup: Percent Effect / Wolbachia pipientis / `CCn1cc(C(=O)Nc2ccc(C)cc2C(=O)OC)cn1`
// result -8.405
